measured.endpoint: melting point

Previously resolved entries follow.
# compound, measured.endpoint, reported
rows = [
    ("COc1ccc(S(=O)(=O)N(CCCC(C)=O)c2ccccc2)cc1 [Compound 5]", "melting point", "81 to 82 °C"),
    ("COc1ccc(S(=O)(=O)N(CCCC(=O)C2CCCCC2)c2ccccc2)cc1 [Compound 6]", "melting point", "81 to 82 °C"),
    ("COc1ccc(S(=O)(=O)N(CCCC(=O)C2CCCCCC2)c2ccc3c(c2)CCCC3)cc1 [Compound 15]", "melting point", "111 to 112 °C"),
    ("O=C(CCCN(c1ccccc1)S(=O)(=O)c1ccc(Oc2ccccc2)cc1)C1CCCCCC1 [Compound 12]", "melting point", "127 to 128 °C"),
    ("COc1ccc(S(=O)(=O)N(CCCC(=O)c2ccc(F)cc2)c2ccccc2)cc1 [Compound 1]", "melting point", "93 to 94 °C"),
    ("COc1ccc(S(=O)(=O)NCCCC(=O)c2ccc(F)cc2)cc1 [Compound 3]", "melting point", "84 to 85 °C"),
    ("COc1ccc(S(=O)(=O)N(CCCC(=O)C2C3CC4CC(C3)CC2C4)c2ccccc2)cc1 (centres unmarked) [Compound 10]", "melting point", "117 to 118 °C"),
]

# evaluate next
Task: Give the reported value of melting point for this record: O=C(CCCN(c1ccccc1)S(=O)(=O)c1ccc(OC(F)(F)F)cc1)C1CCCC1 [Compound 11]
Result: 69 to 70 °C

---

Below, each entry is listed alongside its reported melting point.

# chemical.string, melting point
rows = [
    ("COc1ccc(S(=O)(=O)N(CCCC(=O)C2CCCCCC2)c2ccc(C3CCCCC3)cc2)cc1", "103 to 104 °C"),
]

Task: Give the reported value of melting point for this record: COc1ccc(S(=O)(=O)N(CCCC(=O)C2CCCC2)c2ccccc2)cc1
Result: 89 to 90 °C

Task: Give the reported value of melting point for this record: COc1ccc(S(=O)(=O)N(C)CCCC(=O)c2ccc(F)cc2)cc1
Result: 89 to 90 °C

---

- System: DENV-2-eGFP reporter virus
- test.name: Cell-based anti-DENV-2 screening with DENV-2-eGFP reporter virus in BE(2)C cells
- Set-up: species or system type 2 dengue virus
- details: Dengue virus, DENV2, BE(2)-C, 24 h, read-out: DENV-2 infection %
Categorize each record by its activity at 3.125 µM using range 1 = under 30%, range 2 = from 30% up to 70%, range 3 = 70% and over

Check out these entries, answers already filled in.
# molecule, cat
rows = [
    ("COc1ccc(S(=O)(=O)N(CCCC(O)c2ccc(F)cc2)c2ccccc2)cc1 (stereo not drawn) [Compound 2]", "range 2"),
    ("COc1ccc(S(=O)(=O)N(CCCC(=O)C2C3CC4CC(C3)CC2C4)c2ccccc2)cc1 (stereo not drawn) [Compound 10]", "range 2"),
    ("COc1ccc(S(=O)(=O)N(CCCC(=O)C2CCCCCC2)c2ccc3c(c2)CCCC3)cc1 [Compound 15]", "range 1"),
    ("COc1ccc(S(=O)(=O)N(CCCC(=O)C2CCCCCC2)c2ccc(C3CCCCC3)cc2)cc1 [Compound 16]", "range 1"),
    ("COc1ccc(S(=O)(=O)N(CCCC(=O)c2ccc(F)cc2)c2ccccc2)cc1 [Compound 1]", "range 2"),
    ("COc1ccc(S(=O)(=O)N(CCCC(=O)C2CCCC2)c2ccccc2)cc1 [Compound 8]", "range 1"),
    ("O=C(CCCN(c1ccccc1)S(=O)(=O)c1ccc(OC(F)(F)F)cc1)C1CCCC1 [Compound 11]", "range 3"),
    ("COc1ccc(S(=O)(=O)N(CCCC(C)=O)c2ccccc2)cc1 [Compound 5]", "range 3"),
]

Task: Hello team, could you let me know which band the following molecule falls into: O=C(CCCN(c1ccccc1)S(=O)(=O)c1ccc(Oc2ccccc2)cc1)C1CCCCCC1 [Compound 12]
Result: range 3

Task: Hello team, could you let me know which band the following molecule falls into: Cc1ccc(S(=O)(=O)N(CCCC(=O)C2CCCCCC2)c2ccccc2)cc1 [Compound 13]
Result: range 3
